testTarget: CYP1A2 (Homo sapiens)
Sequence (P05177 whole entry): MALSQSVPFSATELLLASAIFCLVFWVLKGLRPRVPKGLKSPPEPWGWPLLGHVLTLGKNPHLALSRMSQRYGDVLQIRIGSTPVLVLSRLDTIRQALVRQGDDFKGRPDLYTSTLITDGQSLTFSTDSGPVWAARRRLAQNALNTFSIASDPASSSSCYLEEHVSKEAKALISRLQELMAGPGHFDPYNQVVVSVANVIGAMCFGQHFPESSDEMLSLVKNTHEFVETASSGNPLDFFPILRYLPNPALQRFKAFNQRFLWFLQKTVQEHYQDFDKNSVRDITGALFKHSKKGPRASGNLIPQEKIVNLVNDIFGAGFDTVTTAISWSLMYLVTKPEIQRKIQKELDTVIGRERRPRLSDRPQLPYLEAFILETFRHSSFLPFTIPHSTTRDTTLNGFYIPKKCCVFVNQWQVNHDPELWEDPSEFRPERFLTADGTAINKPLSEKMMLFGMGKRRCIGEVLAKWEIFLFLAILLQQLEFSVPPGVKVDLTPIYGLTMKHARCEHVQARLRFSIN
procedureSummary: Reaction phenotyping, rCYP1A2
experimentalParameters: recombinant CYP1A2, pH 7.4
measuredParameter: remaining at 1 h, 10 µM (%)
Give the value, in units of %, as a plain number.

Query block: Consider the compound shown here: CCOc1ccc(NC(C)=O)cc1 What is its recorded remaining at 1 h, 10 µM?
Result block: 65.8

====

testTarget: UGT1A1 (Homo sapiens)
Construct: from tissue
Sequence (P22309 26-533): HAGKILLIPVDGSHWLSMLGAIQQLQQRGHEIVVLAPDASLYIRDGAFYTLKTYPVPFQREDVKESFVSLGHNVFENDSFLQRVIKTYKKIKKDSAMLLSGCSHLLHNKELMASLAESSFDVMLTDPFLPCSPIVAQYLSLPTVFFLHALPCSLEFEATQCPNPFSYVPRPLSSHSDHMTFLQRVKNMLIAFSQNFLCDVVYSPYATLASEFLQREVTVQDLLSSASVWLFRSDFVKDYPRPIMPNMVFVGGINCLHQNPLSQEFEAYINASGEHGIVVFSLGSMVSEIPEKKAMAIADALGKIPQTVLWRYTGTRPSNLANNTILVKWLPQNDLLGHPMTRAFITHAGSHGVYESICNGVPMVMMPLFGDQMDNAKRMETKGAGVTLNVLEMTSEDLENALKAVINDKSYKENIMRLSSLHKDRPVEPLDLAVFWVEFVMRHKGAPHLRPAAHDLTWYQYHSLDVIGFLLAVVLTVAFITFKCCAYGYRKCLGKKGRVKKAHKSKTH
procedureSummary: Enzyme inhibition assay, UGT1A1
Assay type: in vitro ADME
experimentalParameters: human, human liver microsomes, probe SN38 (0.5 µM), SN38 glucuronidation; read-out: maximum activation of SN38 glucuronidation
measuredParameter: Emax at 15 min, 30 µM (%)
Give the value, in units of %, as a plain number.

Query block: Return Emax at 15 min, 30 µM measured with UGT1A1 (Homo sapiens) given this compound: Clc1ccc(COC(Cn2ccnc2)c2ccc(Cl)cc2Cl)c(Cl)c1 (stereo not shown) [MIC, miconazole]
Result block: 607

====

testTarget: UGT1A8 (Homo sapiens)
Sequence (Q9HAW9 26-530): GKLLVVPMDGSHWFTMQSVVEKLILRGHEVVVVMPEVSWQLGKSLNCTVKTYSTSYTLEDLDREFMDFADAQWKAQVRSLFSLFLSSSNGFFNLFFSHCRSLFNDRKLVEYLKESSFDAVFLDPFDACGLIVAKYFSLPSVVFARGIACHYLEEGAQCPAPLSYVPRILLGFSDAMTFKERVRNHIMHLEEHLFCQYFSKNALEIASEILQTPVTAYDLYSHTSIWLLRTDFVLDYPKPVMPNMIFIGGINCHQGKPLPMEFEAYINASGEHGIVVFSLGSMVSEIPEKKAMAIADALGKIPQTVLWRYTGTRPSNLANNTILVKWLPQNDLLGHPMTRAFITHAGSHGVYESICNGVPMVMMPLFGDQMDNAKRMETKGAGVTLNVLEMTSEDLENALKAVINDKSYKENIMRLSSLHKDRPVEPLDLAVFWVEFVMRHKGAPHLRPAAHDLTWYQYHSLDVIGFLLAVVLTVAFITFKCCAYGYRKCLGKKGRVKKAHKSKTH
procedureSummary: Enzyme inhibition assay, UGT1A8
measuredParameter: IC50 (µM)
Give the value, in units of µM, as a plain number.

Query block: Consider the compound shown here: O=c1cc(-c2ccc(O)c(-c3c(O)cc(O)c4c(=O)cc(-c5ccc(O)cc5)oc34)c2)oc2cc(O)cc(O)c12 [Amentoflavone] What is its recorded IC50?
Result block: 5.57

====

Tested on: CYP2B6
procedureSummary: Enzyme induction assay, CYP2B6 activity in primary human hepatocytes
experimentalParameters: CYP2B6 bupropion hydroxylation, donor HU8373, over negative control, DPV 303 nM, phenobarbital 1 mM
measuredParameter: fold induction at 72 h, 303 nM

Query block: Consider the compound shown here: CCC1(c2ccccc2)C(=O)NC(=O)NC1=O [Phenobarbital] What is its recorded fold induction at 72 h, 303 nM?
Result block: 10.7

====

For each of the molecules below, state its IC50.
Give the value, in units of µM, as a plain number.

Query block: Return IC50 measured with CYP1A2 (Homo sapiens) given this molecule: Cc1cc(C)c(Nc2ccnc(Nc3ccc(C#N)cc3)n2)c(C)c1
Result block: 10.5

Query block: Return IC50 measured with CYP1A2 (Homo sapiens) given this molecule: Clc1ccc(COC(Cn2ccnc2)c2ccc(Cl)cc2Cl)c(Cl)c1 (centres unmarked)
Result block: 5.11

====

testTarget: CYP1B1 (Homo sapiens, UniProt Q16678)
Sequence (Q16678 whole entry): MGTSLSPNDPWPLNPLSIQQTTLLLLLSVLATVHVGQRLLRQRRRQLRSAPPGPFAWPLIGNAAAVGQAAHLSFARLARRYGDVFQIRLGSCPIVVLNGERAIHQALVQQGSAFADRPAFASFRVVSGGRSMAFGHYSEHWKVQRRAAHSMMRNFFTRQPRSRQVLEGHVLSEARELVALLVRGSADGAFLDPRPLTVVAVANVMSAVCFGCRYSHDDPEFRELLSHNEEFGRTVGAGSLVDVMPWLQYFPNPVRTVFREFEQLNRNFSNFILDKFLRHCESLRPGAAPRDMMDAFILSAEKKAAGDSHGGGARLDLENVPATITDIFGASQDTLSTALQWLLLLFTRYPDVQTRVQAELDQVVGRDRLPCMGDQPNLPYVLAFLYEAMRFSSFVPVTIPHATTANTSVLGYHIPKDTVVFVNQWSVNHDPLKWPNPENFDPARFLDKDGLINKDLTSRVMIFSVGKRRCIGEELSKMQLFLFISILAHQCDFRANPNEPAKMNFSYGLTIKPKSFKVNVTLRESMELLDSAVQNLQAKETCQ
procedureSummary: Enzyme inhibition assay, CYP1B1
experimentalParameters: Recombinant CYP1B1; 7-ethoxyresorufin O-deethylation
For each of the compounds below, state its pIC50.
Please report pIC50 as the negative decimal logarithm of the molar concentration, giving only the number.

Query block: Return pIC50 measured with CYP1B1 (Homo sapiens, UniProt Q16678) given this compound: Clc1ccc(COC(Cn2ccnc2)c2ccc(Cl)cc2Cl)c(Cl)c1 (centres unmarked)
Result block: 6.33

Query block: Return pIC50 measured with CYP1B1 (Homo sapiens, UniProt Q16678) given this compound: Cc1cc(C)c(Nc2ccnc(Nc3ccc(C#N)cc3)n2)c(C)c1
Result block: 5.81

====

testTarget: UniProt Q9HAW9
Sequence (Q9HAW9 26-530): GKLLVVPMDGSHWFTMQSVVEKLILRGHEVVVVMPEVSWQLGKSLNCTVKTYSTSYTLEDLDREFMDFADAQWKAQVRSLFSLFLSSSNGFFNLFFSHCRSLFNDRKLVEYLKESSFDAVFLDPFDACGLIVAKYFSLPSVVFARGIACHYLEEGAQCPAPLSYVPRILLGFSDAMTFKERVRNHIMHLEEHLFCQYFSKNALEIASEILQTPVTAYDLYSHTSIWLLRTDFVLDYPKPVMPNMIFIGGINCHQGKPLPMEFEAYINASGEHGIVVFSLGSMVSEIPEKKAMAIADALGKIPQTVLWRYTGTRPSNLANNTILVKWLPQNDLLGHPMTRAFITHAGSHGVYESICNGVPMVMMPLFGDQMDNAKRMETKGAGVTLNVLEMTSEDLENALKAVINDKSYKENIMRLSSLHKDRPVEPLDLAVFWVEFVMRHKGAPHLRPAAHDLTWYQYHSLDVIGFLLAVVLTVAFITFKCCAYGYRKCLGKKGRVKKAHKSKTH
procedureSummary: Reaction phenotyping, rUGT1A8
experimentalParameters: recombinant UGT1A8, pH 7.4
measuredParameter: remaining at 1 h, 2 µM (%)
Give the value, in units of %, as a plain number.

Query block: Consider the molecule shown here: Cc1cc(=O)oc2cc(O)ccc12 What is its recorded remaining at 1 h, 2 µM?
Result block: 49.9

====

Test system: CYP1A2
procedureSummary: Enzyme induction assay, CYP1A2 activity in primary human hepatocytes
Type: in vitro ADME
experimentalParameters: plated cryopreserved primary human hepatocytes, donor HU2068, probe phenacetin (100 µM), O-deethylation
measuredParameter: fold induction at 72 h, 303 nM

Query block: Consider the molecule shown here: COc1ccc2[nH]c([S+]([O-])Cc3ncc(C)c(OC)c3C)nc2c1 (stereo not shown) What is its recorded fold induction at 72 h, 303 nM?
Result block: 35.5

====

testTarget: UniProt O60656
Sequence (O60656 26-530): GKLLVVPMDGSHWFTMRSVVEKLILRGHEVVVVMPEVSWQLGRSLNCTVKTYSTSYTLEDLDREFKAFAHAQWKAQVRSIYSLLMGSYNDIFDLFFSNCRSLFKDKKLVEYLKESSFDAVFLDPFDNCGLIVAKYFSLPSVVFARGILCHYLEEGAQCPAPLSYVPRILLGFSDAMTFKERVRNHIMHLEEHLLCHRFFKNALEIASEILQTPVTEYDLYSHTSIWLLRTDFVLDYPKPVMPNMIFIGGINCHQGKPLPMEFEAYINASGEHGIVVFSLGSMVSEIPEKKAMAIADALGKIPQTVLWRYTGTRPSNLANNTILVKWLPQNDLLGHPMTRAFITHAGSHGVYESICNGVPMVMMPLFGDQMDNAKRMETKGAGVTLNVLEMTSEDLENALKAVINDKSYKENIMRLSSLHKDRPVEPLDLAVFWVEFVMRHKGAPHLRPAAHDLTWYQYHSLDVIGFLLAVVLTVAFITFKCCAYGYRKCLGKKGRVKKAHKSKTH
procedureSummary: Reaction phenotyping, rUGT1A9
experimentalParameters: recombinant UGT1A9, pH 7.4
measuredParameter: remaining at 1 h, 0.2 µM (%)
Give the value, in units of %, as a plain number.

Query block: Consider the molecule shown here: COc1c(C)c2c(c(O)c1C/C=C(\C)CCC(=O)O)C(=O)OC2 [Mycophenolic acid] What is its recorded remaining at 1 h, 0.2 µM?
Result block: 0

====

testTarget: UGT1A3 (Homo sapiens, UniProt P35503)
Sequence (P35503 29-534): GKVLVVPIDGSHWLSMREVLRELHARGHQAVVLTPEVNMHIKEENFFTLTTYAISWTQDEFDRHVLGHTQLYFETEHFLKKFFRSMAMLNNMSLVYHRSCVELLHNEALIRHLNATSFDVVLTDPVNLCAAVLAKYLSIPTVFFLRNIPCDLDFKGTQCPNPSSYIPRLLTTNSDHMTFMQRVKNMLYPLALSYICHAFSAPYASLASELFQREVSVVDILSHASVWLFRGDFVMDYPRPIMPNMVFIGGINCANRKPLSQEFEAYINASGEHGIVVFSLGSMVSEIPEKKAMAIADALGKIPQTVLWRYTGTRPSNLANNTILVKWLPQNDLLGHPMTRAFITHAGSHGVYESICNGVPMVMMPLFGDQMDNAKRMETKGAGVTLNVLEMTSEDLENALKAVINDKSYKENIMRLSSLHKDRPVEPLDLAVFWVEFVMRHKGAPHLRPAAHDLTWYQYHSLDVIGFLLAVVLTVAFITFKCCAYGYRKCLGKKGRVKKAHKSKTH
procedureSummary: Reaction phenotyping, rUGT1A3
experimentalParameters: recombinant UGT1A3, pH 7.4
measuredParameter: remaining at 1 h, 2 µM (%)
Give the value, in units of %, as a plain number.

Query block: Consider the compound shown here: C[C@H](CCC(=O)O)[C@H]1CC[C@H]2[C@@H]3[C@H](O)C[C@@H]4C[C@H](O)CC[C@]4(C)[C@H]3CC[C@]12C What is its recorded remaining at 1 h, 2 µM?
Result block: 59.4

====

testTarget: UGT1A4 (Homo sapiens, UniProt P22310)
Sequence (P22310 29-534): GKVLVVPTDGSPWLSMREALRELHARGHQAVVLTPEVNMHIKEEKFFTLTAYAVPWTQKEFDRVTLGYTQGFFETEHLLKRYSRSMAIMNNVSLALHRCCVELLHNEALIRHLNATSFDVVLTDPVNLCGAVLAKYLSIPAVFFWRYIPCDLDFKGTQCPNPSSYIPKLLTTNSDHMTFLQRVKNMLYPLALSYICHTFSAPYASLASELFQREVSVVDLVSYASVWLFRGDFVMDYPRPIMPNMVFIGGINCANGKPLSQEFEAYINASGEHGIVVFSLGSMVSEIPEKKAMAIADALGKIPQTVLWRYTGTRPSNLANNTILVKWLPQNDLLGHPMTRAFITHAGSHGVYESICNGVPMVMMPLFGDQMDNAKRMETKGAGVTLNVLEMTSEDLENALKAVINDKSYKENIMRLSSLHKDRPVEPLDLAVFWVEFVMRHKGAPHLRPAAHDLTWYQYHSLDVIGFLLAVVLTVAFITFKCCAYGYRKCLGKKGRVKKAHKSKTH
procedureSummary: Reaction phenotyping, rUGT1A4
experimentalParameters: recombinant UGT1A4, pH 7.4
measuredParameter: remaining at 1 h, 0.5 µM (%)
Give the value, in units of %, as a plain number.

Query block: Consider the compound shown here: CN1CCN(CCCN2c3ccccc3Sc3ccc(C(F)(F)F)cc32)CC1 [Trifluoperazine] What is its recorded remaining at 1 h, 0.5 µM?
Result block: 73.1

====

testTarget: UniProt:P22310
procedureSummary: Enzyme inhibition assay, UGT1A4
measuredParameter: IC50 (µM)
Give the value, in units of µM, as a plain number.

Query block: Return IC50 measured with UniProt:P22310 given this molecule: C[C@@H]1CC[C@@]2(OC1)O[C@H]1C[C@H]3[C@@H]4CC[C@H]5C[C@@H](O)CC[C@]5(C)[C@H]4CC(=O)[C@]3(C)[C@H]1[C@@H]2C
Result block: 0.96

Query block: Return IC50 measured with UniProt:P22310 given this molecule: Clc1ccc(COC(Cn2ccnc2)c2ccc(Cl)cc2Cl)c(Cl)c1 (stereo not drawn)
Result block: 26.5

Query block: Return IC50 measured with UniProt:P22310 given this molecule: Cc1cc(C)c(Nc2ccnc(Nc3ccc(C#N)cc3)n2)c(C)c1
Result block: 9.45

====

Tested on: CYP2B6
procedureSummary: Enzyme induction assay, CYP2B6 activity in primary human hepatocytes
experimentalParameters: CYP2B6 bupropion hydroxylation, donor HU2036, over negative control, DPV 303 nM, phenobarbital 1 mM
measuredParameter: fold induction at 72 h, 303 nM
// no unit string in output, number only

Query block: Consider the molecule shown here: CCC1(c2ccccc2)C(=O)NC(=O)NC1=O [Phenobarbital] What is its recorded fold induction at 72 h, 303 nM?
Result block: 7.63
